Parameter: FPD (field-potential duration), % change from baseline. Scope: all listed entries.
tested on: hiPSC-CMs (iCell-Cardiomyocytes^2); settings: 0.1 µM, 72h
Numeric answer plus unit only.

These solved cases illustrate the format of a correct answer.
COc1cccc2c1C(=O)c1c(O)c3c(c(O)c1C2=O)C[C@@](O)(C(=O)CO)C[C@@H]3O[C@H]1C[C@H](N)[C@H](O)[C@H](C)O1    -25±8.7 %
CCN(CC)CCNC(=O)c1c(C)[nH]c(/C=C2\C(=O)Nc3ccc(F)cc32)c1C    36.3±3.3 %
O=C(O)COCCN1CCN(C(c2ccccc2)c2ccc(Cl)cc2)CC1 (centres unmarked)    7.8±1.4%
N=C(N)c1ccc(OCCCCCOc2ccc(C(=N)N)cc2)cc1    4.9±2.5%

Next, consider the following molecule.
**Query** Fill in: FPD (field-potential duration), % change from baseline of `Cc1cn(-c2cc(NC(=O)c3ccc(C)c(Nc4nccc(-c5cccnc5)n4)c3)cc(C(F)(F)F)c2)cn1` is ___
**Result** 17.3±1.9%

---

System: hiPSC-CMs (iCell-Cardiomyocytes^2)
Details: 1 µM, 48h
Protocol: Cells were seeded according to the instructions of the cell provider, in fibronectin-coated 48-well MEA plates (Axion Cytoview Plates, M768-tMEA-48B) at a density suited to form a monolayer (i.e., 50 K/well) and maintained in culture in a stage incubator (37°C, 5% CO2). […] The potential presence of various arrhythmic events was evaluated and noted during the data analysis. […]
readoutName: Flat T-wave-like, number of observations/total well numbers

These solved cases illustrate the format of a correct answer.
COc1cccc2c1C(=O)c1c(O)c3c(c(O)c1C2=O)C[C@@](O)(C(=O)CO)C[C@@H]3O[C@H]1C[C@H](N)[C@H](O)[C@H](C)O1 [Doxorubicin]    0/5
N=C(N)c1ccc(OCCCCCOc2ccc(C(=N)N)cc2)cc1 [Pentamidine]    0/6
COc1nc(N)nc2c1ncn2[C@@H]1O[C@H](COP(=O)(N[C@@H](C)C(=O)OCC(C)(C)C)Oc2cccc3ccccc23)[C@@H](O)[C@@]1(C)O (stereo partly drawn) [BMS-986094]    3/5
COc1cc2c(Nc3ccc(Br)cc3F)ncnc2cc1OCC1CCN(C)CC1 [Vandetanib]    5/5
C#Cc1cccc(Nc2ncnc3cc(OCCOC)c(OCCOC)cc23)c1 [Erlotinib]    0/5

Next, consider the following compound.
**Query** Fill in: Flat T-wave-like, number of observations/total well numbers of CC(C)(Sc1cc(C(C)(C)C)c(O)c(C(C)(C)C)c1)Sc1cc(C(C)(C)C)c(O)c(C(C)(C)C)c1 [Probucol] is ___
**Result** 0/4

---

Parameter: Flat T-wave-like, number of observations/total well numbers. Scope: all listed entries.
test system: hiPSC-CMs (iCell-Cardiomyocytes^2); conditions: 0.3 µM, 96h

**Query** Fill in: Flat T-wave-like, number of observations/total well numbers of CC(C)(Sc1cc(C(C)(C)C)c(O)c(C(C)(C)C)c1)Sc1cc(C(C)(C)C)c(O)c(C(C)(C)C)c1 [Probucol] is ___
**Result** 0/5

**Query** Subsequent entry: COc1cc2c(Nc3ccc(Br)cc3F)ncnc2cc1OCC1CCN(C)CC1 [Vandetanib]
**Result** 1/5

**Query** Subsequent entry: N=C(N)c1ccc(OCCCCCOc2ccc(C(=N)N)cc2)cc1 [Pentamidine]
**Result** 0/5

**Query** Subsequent entry: COc1nc(N)nc2c1ncn2[C@@H]1O[C@H](COP(=O)(N[C@@H](C)C(=O)OCC(C)(C)C)Oc2cccc3ccccc23)[C@@H](O)[C@@]1(C)O (stereo partly shown) [BMS-986094]
**Result** 1/5

**Query** Subsequent entry: COc1cccc2c1C(=O)c1c(O)c3c(c(O)c1C2=O)C[C@@](O)(C(=O)CO)C[C@@H]3O[C@H]1C[C@H](N)[C@H](O)[C@H](C)O1 [Doxorubicin]
**Result** 0/5

**Query** Subsequent entry: C#Cc1cccc(Nc2ncnc3cc(OCCOC)c(OCCOC)cc23)c1 [Erlotinib]
**Result** 0/5

**Query** Subsequent entry: Cc1cn(-c2cc(NC(=O)c3ccc(C)c(Nc4nccc(-c5cccnc5)n4)c3)cc(C(F)(F)F)c2)cn1 [Nilotinib]
**Result** 1/5

---

system: hiPSC-CMs (iCell-Cardiomyocytes^2); conditions: 3 µM; 48h
readoutName: FPDc (field-potential duration corrected by beat-rate), % change from baseline (%)
Could you give me the number in %? Just the number is fine.

CC(C)(Sc1cc(C(C)(C)C)c(O)c(C(C)(C)C)c1)Sc1cc(C(C)(C)C)c(O)c(C(C)(C)C)c1 [Probucol]    4.9

**Query** Fill in: FPDc (field-potential duration corrected by beat-rate), % change from baseline of C#Cc1cccc(Nc2ncnc3cc(OCCOC)c(OCCOC)cc23)c1 [Erlotinib] is ___
**Result** 5.9

**Query** Subsequent entry: C[C@H](CS)C(=O)N1CCC[C@H]1C(=O)O [Captopril]
**Result** 8.2

**Query** Subsequent entry: CC1(C)S[C@@H]2[C@H](NC(=O)[C@H](N)c3ccc(O)cc3)C(=O)N2[C@H]1C(=O)O [Amoxicillin]
**Result** 5.7

---

Parameter: BR (beating rate), % change from baseline. Scope: all listed entries.
system: hiPSC-CMs (iCell-Cardiomyocytes^2); details: 0.3 µM, 24h
Numeric answer plus unit only.

These solved cases illustrate the format of a correct answer.
O=C(O)COCCN1CCN(C(c2ccccc2)c2ccc(Cl)cc2)CC1 (stereo not drawn)    2±2%
N=C(N)c1ccc(OCCCCCOc2ccc(C(=N)N)cc2)cc1    0±3%

Next, consider the following molecule.
**Query** Fill in: BR (beating rate), % change from baseline of COc1nc(N)nc2c1ncn2[C@@H]1O[C@H](COP(=O)(N[C@@H](C)C(=O)OCC(C)(C)C)Oc2cccc3ccccc23)[C@@H](O)[C@@]1(C)O (stereo partly drawn) is ___
**Result** 8±3%

---

Tested on: hiPSC-CMs (iCell-Cardiomyocytes^2)
Conditions: 3 µM, 96h
Procedure: Cells were seeded according to the instructions of the cell provider, in fibronectin-coated 48-well MEA plates (Axion Cytoview Plates, M768-tMEA-48B) at a density suited to form a monolayer (i.e., 50 K/well) and maintained in culture in a stage incubator (37°C, 5% CO2). […] The potential presence of various arrhythmic events was evaluated and noted during the data analysis. […]
Parameter: BR (beating rate), % change from baseline. Scope: all listed entries.
Could you give me the number in %? Just the number is fine.

These solved cases illustrate the format of a correct answer.
C[C@H](CS)C(=O)N1CCC[C@H]1C(=O)O    -18
CC(=O)Oc1ccccc1C(=O)O    -18
O=C(O)COCCN1CCN(C(c2ccccc2)c2ccc(Cl)cc2)CC1 (stereo not drawn)    -5
CC(C)(Sc1cc(C(C)(C)C)c(O)c(C(C)(C)C)c1)Sc1cc(C(C)(C)C)c(O)c(C(C)(C)C)c1    14
COc1nc(N)nc2c1ncn2[C@@H]1O[C@H](COP(=O)(N[C@@H](C)C(=O)OCC(C)(C)C)Oc2cccc3ccccc23)[C@@H](O)[C@@]1(C)O (stereo partly drawn)    20

Next, consider the following compound.
**Query** Fill in: BR (beating rate), % change from baseline of `CC1(C)S[C@@H]2[C@H](NC(=O)[C@H](N)c3ccc(O)cc3)C(=O)N2[C@H]1C(=O)O` is ___
**Result** -20

---

system: hiPSC-CMs (iCell-Cardiomyocytes^2); assay: MEA impedance (cytotoxicity readout) in hiPSC-CMs; details: 1 µM, 48h
Parameter: Imp (impedance), % change from baseline. Scope: all listed entries.
Numeric answer plus unit only.

These solved cases illustrate the format of a correct answer.
CC1(C)S[C@@H]2[C@H](NC(=O)[C@H](N)c3ccc(O)cc3)C(=O)N2[C@H]1C(=O)O    -2±4%
COc1cc2c(Nc3ccc(Br)cc3F)ncnc2cc1OCC1CCN(C)CC1    -13±4%
CC(C)(Sc1cc(C(C)(C)C)c(O)c(C(C)(C)C)c1)Sc1cc(C(C)(C)C)c(O)c(C(C)(C)C)c1    -3±3%

Next, consider the following molecule.
**Query** Fill in: Imp (impedance), % change from baseline of O=C(O)COCCN1CCN(C(c2ccccc2)c2ccc(Cl)cc2)CC1 (stereo not shown) is ___
**Result** -4±7%

---

system: hiPSC-CMs (iCell-Cardiomyocytes^2); conditions: 0.3 µM, 72h
Parameter: Flat T-wave-like, number of observations/total well numbers. Scope: all listed entries.

**Query** Fill in: Flat T-wave-like, number of observations/total well numbers of `N=C(N)c1ccc(OCCCCCOc2ccc(C(=N)N)cc2)cc1` is ___
**Result** 0/5

**Query** Subsequent entry: `C#Cc1cccc(Nc2ncnc3cc(OCCOC)c(OCCOC)cc23)c1`
**Result** 0/5

**Query** Subsequent entry: `COc1cc2c(Nc3ccc(Br)cc3F)ncnc2cc1OCC1CCN(C)CC1`
**Result** 1/5

**Query** Subsequent entry: COc1nc(N)nc2c1ncn2[C@@H]1O[C@H](COP(=O)(N[C@@H](C)C(=O)OCC(C)(C)C)Oc2cccc3ccccc23)[C@@H](O)[C@@]1(C)O (stereo partly shown)
**Result** 0/5
